Hello, the source for this data is patent US8802597B2, in case you need it.

Below: a set of entries, each annotated with reported pest or weed control at 31 g/ha.
- Test system: velvetleaf (Abutilon theophrasti)
- testProtocol: Test C pre/postemergence
- Assay type: in vivo
- conditionSummary: Abutilon theophrasti, post-emergence, Postemergence, 31 g ai/ha; read-out: Plant response rating (scale of 0 to 100), Velvetleaf
measuredQuantity: pest or weed control at 31 g/ha (%)

smilesstructure=COC(=O)c1nc(C2CC2)nc(N)c1Br measuredquantity="pest or weed control at 31 g/ha" readingunit=% readoutvalue=65
smilesstructure=Nc1nc(C2CC2)nc(C(=O)O)c1Cl measuredquantity="pest or weed control at 31 g/ha" readingunit=% readoutvalue=90
smilesstructure=CCOC(=O)c1nc(C2CC2)nc(N)c1F measuredquantity="pest or weed control at 31 g/ha" readingunit=% readoutvalue=10
smilesstructure=Nc1nc(-c2ccc(Br)cc2)nc(C(=O)O)c1Cl measuredquantity="pest or weed control at 31 g/ha" readingunit=% readoutvalue=100
smilesstructure=COC(=O)c1nc(C(C)C)nc(N)c1Br measuredquantity="pest or weed control at 31 g/ha" readingunit=% readoutvalue=25

---

- System: giant foxtail (Setaria faberi)
- testProtocol: Test A pre/postemergence
- Format: in vivo
- conditionSummary: Preemergence, 125 g ai/ha; 0 to 100 scale where 0 is no effect and 100 is complete control; approximately ten days
Entries and their Plant response rating, Foxtail, Giant
measuredQuantity: Plant response rating, Foxtail, Giant

smilesstructure=CCOC(=O)c1nc(-c2ccc(C(F)(F)F)cc2)nc(N)c1Cl experimentalsystem="giant foxtail (Setaria faberi)" readoutvalue=0
smilesstructure=COC(=O)c1nc(-c2ccc(S(C)(=O)=O)cc2)nc(N)c1Cl experimentalsystem="giant foxtail (Setaria faberi)" readoutvalue=0
smilesstructure=Nc1nc(C2CC2)nc(C(=O)OCCCOC(=O)c2nc(C3CC3)nc(N)c2Cl)c1Cl experimentalsystem="giant foxtail (Setaria faberi)" readoutvalue=25
smilesstructure=COC(=O)COc1nc(-c2ccc(Cl)cc2)nc(N)c1Cl experimentalsystem="giant foxtail (Setaria faberi)" readoutvalue=0
smilesstructure=CCOC(=O)c1nc(-c2ccc(CC)cc2)nc(N)c1Cl experimentalsystem="giant foxtail (Setaria faberi)" readoutvalue=0
smilesstructure=CCOC(=O)c1nc(-c2ccc(C(F)(F)F)cc2)nc(N)c1Br experimentalsystem="giant foxtail (Setaria faberi)" readoutvalue=0
smilesstructure=CCOC(=O)c1nc(-c2ccc(OC)cc2)nc(N)c1Cl experimentalsystem="giant foxtail (Setaria faberi)" readoutvalue=0
smilesstructure=CCCCOC(=O)c1nc(C2CC2)nc(N)c1Cl experimentalsystem="giant foxtail (Setaria faberi)" readoutvalue=70
smilesstructure=CS(=O)(=O)NC(=O)c1nc(-c2ccc(Cl)cc2)nc(N)c1Cl experimentalsystem="giant foxtail (Setaria faberi)" readoutvalue=0

---

Items are presented alongside their recorded pest or weed control at 125 g/ha.
- Test system: Surinam grass (Brachiaria decumbens)
- testProtocol: Test B pre/postemergence
- Format: in vivo
- conditionSummary: Urochloa decumbens, post-emergence, Postemergence, 125 g ai/ha; scale 0 to 100 (0 no effect, 100 complete control); read-out: Surinam Grass plant response rating
measuredQuantity: pest or weed control at 125 g/ha (%)

smilesstructure=Nc1nc(C2CC2)nc(C(=O)OCc2ccccc2)c1Cl readoutvalue=80
smilesstructure=COC(=O)c1nc(C2CC2)nc(N)c1F readoutvalue=50
smilesstructure=CCOC(=O)c1nc(C2CC2)nc(NN)c1Br readoutvalue=0
smilesstructure=Nc1nc(-c2ccc(Br)cc2)nc(C(=O)O)c1Cl readoutvalue=90
smilesstructure=Nc1nc(C2CC2)nc(C=O)c1F readoutvalue=0
smilesstructure=COC(=O)c1nc(C2CC2)nc(NO)c1Br readoutvalue=20
smilesstructure=COC(=O)c1nc(C2CC2)nc(N)c1Br readoutvalue=90
smilesstructure=CCOC(=O)c1nc(-c2ccc(Br)cc2)nc(N)c1Cl readoutvalue=80
